compounds and their reported viability
Experiment: reversal of MRP1-mediated doxorubicin resistance, pilot screen, H69AR cells, doxorubicin co-treatment (AID 601)
Conditions: H69AR cells, CellTiter-Glo, 72 h; compound alone cytotoxicity; at 10 µM
Entry rule: numbers only, all in %.

CC(C)(C)c1cc(NS(=O)(=O)c2ccc3c(c2)OCCO3)on1 : 89.6
Cc1nn(-c2ccccc2)c2[nH]c(C(F)(F)F)cc(=O)c12 : 108
CC(=O)Nc1sc2c(c1C#N)CCCCC2 : 95.6
Cc1ccc2cc(CN(CCN3CCCC3)C(=O)Nc3ccc(F)cc3)c(=O)[nH]c2c1C : 13.5
O=C(Nc1cnn(C23CC4CC(CC(C4)C2)C3)c1)c1cnn2c(C(F)(F)F)cc(-c3ccco3)nc12 : 53.3

IN: What does the record list as viability for COc1cc2nc(N3CCN(C(=O)c4ccco4)CC3)nc(N)c2cc1OC ?
OUT: 15.4

###

Experiment: growth suppression of yeast trafficking mutant, preliminary HTS, modulators of trafficking downstream of Golgi apparatus project, 1536-format plate, OD 615 nm (AID 637)
Details: yeast transport mutant growth, absorbance 615 nm, 18 h; stronger effect = higher value
compounds and their reported inhibition
Entry rule: numbers only, all in %.

// solved cases for inhibition follow
Cc1noc(C)c1CSc1nc2ccccc2s1 : -4.1
COc1cc(CN2CCSCC2)cc(OC)c1OC : -1.83
CC(=O)c1ccccc1OCCn1nnc(-c2ccc(C)cc2)n1 : 2.1
COCCc1ccc(OCC(O)CNC(C)C)cc1 (configuration not stated) : 1.33
Cc1cc(C(=O)COc2cccc3cccnc23)c(C)n1C : -3.64

Attention now turns to another entry.
IN: What does the record list as inhibition for Cc1nc(SCC(=O)NCc2ccco2)c2c(C)c(C)sc2n1 ?
OUT: -0.79

###

Assay: HUVEC growth inhibition – cell-based, human, primary screen (AID 575);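 note: 100% = median of untreated cell wells with 0.1% DMSO on each plate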
Conditions: HUVEC proliferation, CellTiter-Glo luminescence, 72 h; at 10 µM
Activity calls are given as the source filed them.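 Rule for the calls: active = viability at or below 30% in both replicate assays; inconclusive = viability at or below 30% in just one of the two assays; inactive = the rest.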
In this exercise, the only acceptable responses are active, inactive

Cc1nc2sc3c(c2c(=O)o1)CCC3 : inactive
COC(=O)c1sccc1NC(=O)c1ccncc1 : inactive
C=CCOC(=O)CC(NC(=O)c1ccccc1)c1ccccc1 (configuration not stated) : inactive
O=C(Nc1ccccc1C(=O)N1CCOCC1)c1ccncc1 : inactive
O=C(O)CCc1ccc(-c2cccs2)n1NC(=O)c1ccccc1Br : inactive
CC1=C(C#N)C(c2ccc3ncccc3c2)C(C#N)=C(C)N1 : inactive

IN: For CC(=O)N1CCc2cc(S(=O)(=O)NCCC(=O)NC3CCCc4ccccc43)ccc21 (configuration not stated) , which call appears in the assay record?
OUT: inactive

IN: Next up: O=C(O)c1ccc(COc2ccc(Cl)cc2)o1
OUT: inactive

IN: Next up: CC(Sc1nnc(-c2cc3ccccc3o2)n1-c1ccccc1)C(=O)O (configuration not stated)
OUT: inactive

IN: Next up: O=C(COc1ccccc1Cl)NCCCN1CCOCC1
OUT: inactive

IN: Next up: CCn1cc(/C=C(/C#N)S(=O)(=O)c2ccccc2)cn1
OUT: inactive

IN: Next up: COc1cccc(-n2c(CNc3ccc(F)cc3)nnc2SCC(N)=O)c1
OUT: inactive

IN: Next up: O=C(C1CCCO1)N1CCN(S(=O)(=O)c2ccccc2)CC1 (configuration not stated)
OUT: inactive

IN: Next up: CC1=C(C(N)=O)C(c2ccc(Cl)cc2Cl)n2ncnc2N1 (configuration not stated)
OUT: inactive

IN: Next up: OCCN1CCN(CCCN2c3ccccc3Sc3ccc(Cl)cc32)CC1
OUT: active

IN: Next up: COc1ccc(-c2nnn(CCc3nn[nH]n3)n2)cc1OC
OUT: inactive

IN: Next up: COC(=O)c1ccc(C2C(C#N)=C(N)Oc3cc(C)n(C)c(=O)c32)cc1 (configuration not stated)
OUT: inactive

IN: Next up: CC(C)COc1ccc(-c2nnn(CC(=O)N3CCCC3)n2)cc1
OUT: inactive

IN: Next up: COc1ccccc1C1/C(=C(/O)c2ccccc2)C(=O)C(=O)N1CC(C)C (configuration not stated)
OUT: inactive

IN: Next up: O=C1C2C3C=CC(C3=C3CCCCC3)C2C(=O)N1c1ccccc1 (configuration not stated)
OUT: inactive

###

molecules and their reported Her2 level
Biological target: Receptor tyrosine-protein kinase erbB-2 (Homo sapiens)
Experiment: reducers of endogenous Her2 protein level, primary screen, SKBR3 breast tumor cells, AlphaScreen, ATP viability (AID 461);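 note: lower value means less Her2 protein in the cells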
Conditions: 18-24 h, at 10 µM, stronger effect = lower value
The source made the active and inactive calls.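 The calls were made as follows: active = Her2 level under about 52% in both replicate screens, with viability over 70% of control (limit read from the data); inconclusive = Her2 under the limit in one screen only, or viability under 70%; inactive = Her2 level above the set limit.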

// solved cases for Her2 level follow
CCOC(=O)Cn1nnnc1CN(Cc1ccc(OC)cc1)Cc1cc2cc(C)cc(C)c2[nH]c1=O : 105% (inactive)
COc1ccccc1N1CCN(S(=O)(=O)CC23CCC(CC2=O)C3(C)C)CC1 (stereo not given) : 94% (inactive)

IN: Request: Her2 level, test system Receptor tyrosine-protein kinase erbB-2 (Homo sapiens), entry CCOC(=O)C1CCN(c2nc3ccccc3nc2C(C#N)C(=O)OC(C)C)CC1 (stereo not given)
OUT: 124% (inactive)

IN: Next up: O=C(c1ccccc1)N1CCN(CC2CC=CCC2)CC1 (stereo not given)
OUT: 79% (inactive)

IN: Next up: COC(=O)c1nc(N)sc1-c1ccccc1
OUT: 93% (inactive)

###

compounds and their reported differential viability (reversal)
Test: reversal of MRP1-mediated doxorubicin resistance, pilot screen, H69AR cells, doxorubicin co-treatment (AID 601)
Conditions: H69AR cells + 2 uM doxorubicin, CellTiter-Glo, 72 h; at 10 µM; stronger effect = higher value
Entry rule: numbers only, all in %.

CCCC(=O)Nc1cnc(NC(=O)c2cccc(F)c2)cc1C : 6.15

IN: What does the record list as differential viability (reversal) for CC(=O)[C@@]1(O)CC[C@H]2[C@@H]3C[C@H](C)C4=CC(=O)CC[C@]4(C)[C@H]3CC[C@@]21C ?
OUT: -15.6

IN: Next up: COC(=O)/C=c1\sc2ncnn2c1=O
OUT: -3.79

IN: Next up: CC1(C)CC(=O)c2cnc(NC(=O)CSc3nc4ccccc4o3)nc2C1
OUT: 9.52

###

compounds and their reported viability
Assay: HUVEC growth inhibition – cell-based, human, primary screen (AID 575);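 note: 100% = median of untreated cell wells with 0.1% DMSO on each plate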
Conditions: HUVEC proliferation, CellTiter-Glo luminescence, 72 h; at 10 µM; stronger effect = lower value
Active and inactive are the calls of the source.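 The calls were made as follows: active = viability at or below 30% in both replicate assays; inconclusive = viability at or below 30% in just one of the two assays; inactive = the rest.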

// solved cases for viability follow
Cc1ccc(F)cc1NC(=O)c1cccc2nccnc12 : 76.5% (inactive)
COc1cccc2cc(C(=O)N3CCc4ccccc43)c(=O)oc12 : 95.2% (inactive)
O=C(COC(=O)CCC1CCCC1)Nc1ccc(Cl)cn1 : 101% (inactive)
CCC(=O)N1CCc2cc(S(=O)(=O)CCC(=O)Nc3nc(C)cs3)ccc21 : 90.5% (inactive)
CCCC(=O)Nc1ccc(OCC(=O)OC)cc1 : 89.9% (inactive)

IN: What does the record list as viability for Cc1cc(NCC2CCCO2)n2c(nc3ccccc32)c1C#N (stereo unspecified) ?
OUT: 81.2% (inactive)

IN: Next up: Cc1ccccc1-n1nnc2c(=O)oc3ccccc3c21
OUT: 64.9% (inactive)

IN: Next up: COc1ccc(CNS(=O)(=O)c2ccc3oc(C(=O)O)c(C)c3c2)cc1
OUT: 111% (inactive)

IN: Next up: COc1cccc(C=Nc2ccc3c(c2)OCCO3)c1O
OUT: 79.2% (inactive)

IN: Next up: CC1c2nc3ccccc3n2C(CC(=O)NCc2ccccn2)C(=O)N1Cc1ccccc1 (stereo unspecified)
OUT: 96.3% (inactive)

IN: Next up: CC(C)N(Cc1nc(-c2ccc(Cl)cc2)no1)C(=O)CN(C)S(=O)(=O)c1ccc(Cl)cc1
OUT: 66.3% (inactive)

###

compounds and their reported differential viability (reversal)
Test: reversal of MRP1-mediated doxorubicin resistance, pilot screen, H69AR cells, doxorubicin co-treatment (AID 601)
Settings: H69AR cells + 2 uM doxorubicin, CellTiter-Glo, 72 h; at 10 µM; stronger effect = higher value
Entry rule: numbers only, all in %.

IN: What does the record list as differential viability (reversal) for COCCn1nnnc1C(c1ccccc1OC)N1CCc2ccccc2C1 (stereo not drawn) ?
OUT: -6.74

IN: Next up: O=C(Nc1ccccc1-c1ccccc1)NC1CCN(C(=O)N2CCOCC2)CC1
OUT: 3.68

IN: Next up: Cc1cc(/C=N\O)c(C)n1-c1ccncc1
OUT: -5.03

IN: Next up: C(#Cc1ccccc1)Cn1nnc2ccccc21
OUT: 7.46

IN: Next up: COc1ccc(N2CCN(C(=O)CCNS(=O)(=O)c3ccc(Br)s3)CC2)cc1
OUT: -3.66

IN: Next up: Cc1nnc(SCC(=O)N2CCC(C(N)=O)CC2)s1
OUT: -8.62

IN: Next up: CCCn1c(=NC(C)=O)c(C#N)cc2c(=O)n3cccc(C)c3nc21
OUT: -3.01

IN: Next up: O=C(NC1CCCC1)C(c1cccs1)N(Cc1ccco1)C(=O)Cn1nnc(-c2cccs2)n1 (stereo not drawn)
OUT: -1.47

IN: Next up: Cc1n[nH]c(C)c1S(=O)(=O)Nc1ccc2c(c1)OCCO2
OUT: 14.9

IN: Next up: CC1(C)O[C@@H]2C[C@H]3[C@@H]4C[C@H](F)C5=CC(=O)CC[C@]5(C)[C@H]4[C@@H](O)C[C@]3(C)[C@]2(C(=O)CO)O1
OUT: -2.5

IN: Next up: Cn1c(SCc2c(F)cccc2Cl)nnc1-c1cccs1
OUT: 10.2

IN: Next up: COC(=O)Cc1c(C)nc2nc[nH]n2c1=O
OUT: 9.79

IN: Next up: CCn1c(SCC(=O)Nc2ccccc2N2CCCCC2)nc2c1c(=O)n(C)c(=O)n2C
OUT: 1.19

IN: Next up: COC(=O)c1ccccc1NC(=O)c1cnc2sccn2c1=O
OUT: 8.43

IN: Next up: CC(C)(C)NC(=O)CN(Cc1cccs1)C(=O)c1csnn1
OUT: -2.3

IN: Next up: CCOC(=O)CC(=O)c1cc(OC)c(OC)c(OC)c1
OUT: 11.3

IN: Next up: CCCCN(CC)S(=O)(=O)N1CCC(C(=O)NCc2ccc(F)cc2)CC1
OUT: 0.67

IN: Next up: CC(C)(C)OC(=O)N1CC=C2C(C#N)=C(N)C(C#N)(C#N)C(c3cccs3)C2C1 (stereo not drawn)
OUT: -5.04

IN: Next up: O=C(NCc1ccco1)c1c2c(nc3ccccc13)CCC2
OUT: 3.16

IN: Next up: Cc1cc(NC(=O)C2CCCC2)nc2c1c(=O)oc1ccccc12
OUT: -24.9

IN: Next up: CC(=O)c1n[nH]nc1NC(=O)c1ccccc1
OUT: -6.65

IN: Next up: CCOC(=O)Nc1ccc(NS(=O)(=O)c2ccc(C)cc2)cc1
OUT: -12.3

IN: Next up: Cc1ccc2nc(C(F)(F)F)c(C#N)c(N)c2c1
OUT: -43.8
